The measured values listed here are drawn from the supplement of paper PMC10065799.

Test system: AncSZ
assay_info: phosphorylation enrichment, bacterial display (enrichment ratio); higher = better substrate or ligand; peptides without Tyr show the background
readout_label: phosphorylation enrichment

* LARDMDDKEYY [MET_Y1230_Y1230D] | 1.87
* YRTGHYLCNAC [GATA1_Y223_D218Y] | 0.477
* LREKVYASLEA [RXRA_Y397] | 1.63
* QNTGNYYDLYG [PTPN11_Y62_D61N] | 2.38
* LSALDYKIFFF [WDPCP_Y210_YF] | 1.5
* QNVADYMRCLM [RPL5_Y207_Y210C] | 1.68
* SENAFYLSPDI [COL6A3_Y2827] | 1.69

* * *

test_system: Hck (UniProt P08631)
Sequence (P08631 whole entry, looked up): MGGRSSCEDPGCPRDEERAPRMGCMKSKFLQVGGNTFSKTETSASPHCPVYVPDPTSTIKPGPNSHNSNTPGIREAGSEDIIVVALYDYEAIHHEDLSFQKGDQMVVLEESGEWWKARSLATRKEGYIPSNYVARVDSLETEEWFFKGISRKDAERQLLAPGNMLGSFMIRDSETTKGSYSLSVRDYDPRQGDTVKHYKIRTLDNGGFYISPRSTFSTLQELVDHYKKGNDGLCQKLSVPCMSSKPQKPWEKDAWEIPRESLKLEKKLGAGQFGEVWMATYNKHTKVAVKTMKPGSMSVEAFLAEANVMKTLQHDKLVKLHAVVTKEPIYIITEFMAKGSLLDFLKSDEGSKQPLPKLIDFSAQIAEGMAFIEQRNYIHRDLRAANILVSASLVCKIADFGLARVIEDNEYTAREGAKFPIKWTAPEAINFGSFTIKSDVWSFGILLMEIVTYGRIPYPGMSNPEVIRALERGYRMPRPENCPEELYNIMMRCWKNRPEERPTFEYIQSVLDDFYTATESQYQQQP
assay_info: phosphorylation enrichment, bacterial display (enrichment ratio); higher = better substrate or ligand; peptides without Tyr show the background
readout_label: phosphorylation enrichment

• QMIETYFDFRL [NSMF_Y506] = 5.25
• MKKQKYGRIIM [HSD17B4_Y143] = 0.396
• RGFDTYFGYLL [ARSB_Y165] = 7.09
• GMKIVYVFVKK [DNAI2_Y5_E2K_YF] = 0.428
• CPEARYNRSPI [PTAR1_Y42] = 0.492
• SGGCSYGSGGG [KRT1_Y539_G537C] = 0.446
• DCVRMYELVHR [GLE1_Y135_G130D] = 2.57
• HLTLVYGGIFL [FBP1_Y259_R255L] = 2.09
• QKKEEYKMALY [F8_Y1990_R1985Q] = 0.496
• TEALYYTDDPA [ADPRS_Y75_T79P] = 1.79
• SLEKSYELPDG [ACTA1_Y242] = 0.534
• MANFMYKAGPS [MAML2_Y515_YF] = 0.39
• REEIKYMLWLS [OTC_Y55_G50R] = 0.786
• SPFMLYQFLKQ [RPAP3_Y567_D564Y_YF] = 4.2

* * *

test_system: c-Src SH2;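 further: peptide library displayed on the E. coli surface as eCPX fusions, selected cells deep-sequenced, score is each peptide's frequency after selection divided by its frequency in the input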
assay_info: SH2 binding enrichment of the phosphorylated peptide, bacterial display (enrichment ratio); higher = better substrate or ligand; peptides without Tyr show the background
readout_label: SH2 binding enrichment

• DFKIIYIAPMR [SNRNP200_Y540] = 0.759
• PADCRYYAFPQ [GAMT_Y222] = 3.02
• ATAKGYEPDAS [OTC_Y223_P220A] = 0.494
• GLIPAYHWVIM [NMNAT1_Y64_R66W] = 0.535
• HPFNSYTFPRL [PAK5_Y316_S312P_YF] = 1
• QSKGIYYVQLE [MGAT4B_Y262] = 1.35
• GINDDHGQLKN [NBN_Y679_Y679H] = 0.481
• PDNEPYIFKVF [PIK3AP1_Y553] = 0.755
• ERPIRYLNHQL [CEP152_Y268_Q265P] = 0.488
• PINEPYGDDLD [JUP_Y693_M697L] = 0.655
• DISEPYKVYRI [IRF8_Y107] = 0.479
• VLDCHYPEDEV [C1QBP_Y188] = 0.468
• DLVHPYVHKIL [SF3B1_Y570_R568H] = 0.522
• LPKEQYLYTKE [AFG3L2_Y614] = 0.597
